Provide the reported IC50 of each item.
# TGT: Calpain-2 catalytic subunit (Sus scrofa, UniProt P43367)
# Sequence (P43367 whole entry): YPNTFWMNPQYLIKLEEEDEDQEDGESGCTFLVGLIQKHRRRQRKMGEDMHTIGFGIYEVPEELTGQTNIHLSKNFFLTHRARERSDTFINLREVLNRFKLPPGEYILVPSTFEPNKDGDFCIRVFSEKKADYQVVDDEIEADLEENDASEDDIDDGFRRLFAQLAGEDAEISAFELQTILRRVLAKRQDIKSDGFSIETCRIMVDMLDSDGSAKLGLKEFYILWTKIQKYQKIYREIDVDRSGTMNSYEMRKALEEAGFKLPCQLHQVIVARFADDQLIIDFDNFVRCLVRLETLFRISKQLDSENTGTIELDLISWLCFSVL
# ASSAY METHOD TEXT: pig calpain II inhibitor potency, dose response, biochemical, fluorogenic peptide substrate (AID 1420)
# Type: functional
The source made the active and inactive calls. No rule for the calls is given here.

Count: 5. Required value per item: IC50.
1. CC(=O)Nc1ccccc1/C=C/c1ccc2c(C)cc(C)c(O)c2n1
2. Cn1c(N)c(C(=O)COC(=O)c2cnc(Cl)c(Cl)c2)c(=O)n(C)c1=O
3. CN(C(=O)COC(=O)c1cnc(Cl)c(Cl)c1)C1CCS(=O)(=O)C1 (stereo not given)
4. O=C(CCCN1C(=O)/C(=C/c2ccccc2Cl)SC1=S)NNC(=O)c1ccc(Cl)cc1Cl
5. CCOC(=O)NC(C(F)(F)F)(C(F)(F)F)P(=O)(c1ccccc1)c1ccccc1

Result ::
1: 10.9 µM (not active); 2: 10.1 µM (active); 3: 3.14 µM (not active); 4: > 50 µM (not active); 5: > 50 µM (not active)
